- subject of test: fatty acyl CoA: cholesterol acyl transferase (ACAT) (Rattus norvegicus, UniProt O70536)
- Sequence (O70536 1-545): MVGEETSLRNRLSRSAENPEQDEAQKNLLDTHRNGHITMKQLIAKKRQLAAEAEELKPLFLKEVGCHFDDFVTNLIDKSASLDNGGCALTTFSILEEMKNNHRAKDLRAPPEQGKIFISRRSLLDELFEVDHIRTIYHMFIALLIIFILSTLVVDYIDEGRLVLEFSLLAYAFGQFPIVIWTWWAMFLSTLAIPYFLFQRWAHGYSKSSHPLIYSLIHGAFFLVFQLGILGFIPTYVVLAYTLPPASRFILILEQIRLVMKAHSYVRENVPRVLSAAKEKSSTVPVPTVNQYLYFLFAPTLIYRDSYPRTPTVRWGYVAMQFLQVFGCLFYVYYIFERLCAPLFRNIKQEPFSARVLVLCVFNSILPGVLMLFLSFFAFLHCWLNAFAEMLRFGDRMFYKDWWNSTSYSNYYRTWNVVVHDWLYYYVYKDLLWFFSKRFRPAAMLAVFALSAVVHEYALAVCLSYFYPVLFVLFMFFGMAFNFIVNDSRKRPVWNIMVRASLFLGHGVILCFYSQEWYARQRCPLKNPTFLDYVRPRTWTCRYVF
I'd appreciate it if you could supply IC50 values for the items below.
Numbers only, in µM.

structure notation: CCCCCCCN(Cc1ccc(C(C)C)cc1)C(=O)Nc1ccc(Cl)cc1C
IC50 (µM): 1.74

// each listed compound needs a value for IC50
1. CCCCCCCN(Cc1ccc(CCCC(=O)O)cc1)C(=O)Nc1c(C)cc(Cl)cc1C
2. CCCCCCCN(Cc1ccc(C(C)C)cc1)C(=O)Nc1c(C)cc(Cl)cc1C

1. 7.22
2. 0.2
